- Measurement target: Induced myeloid leukemia cell differentiation protein Mcl-1 [172-327] (Homo sapiens, UniProt Q07820)
- Construct: 172-327
- Sequence (Q07820 172-327): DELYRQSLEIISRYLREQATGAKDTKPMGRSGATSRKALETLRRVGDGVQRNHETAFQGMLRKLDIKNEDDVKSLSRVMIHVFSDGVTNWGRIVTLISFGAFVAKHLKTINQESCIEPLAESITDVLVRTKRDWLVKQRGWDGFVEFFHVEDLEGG
- Assay text: Binding Assay
Attribute measured: Ki

>  <Compound>
Cc1cc(OCCCc2c(C(=O)NS(=O)(=O)c3ccccc3)[nH]c3c(-c4c(COc5cccnc5)nn(C)c4C)cccc23)cc(C)c1Cl [US10844032, Example 307]

>  <Ki>
< 100 nM

$$$$

Query compound follows.
For Cc1cc(OCCCc2c(C(=O)NS(=O)(=O)c3ccccc3)[nH]c3c(-c4c(COc5ccccn5)nn(C)c4C)cccc23)cc(C)c1Cl [US10844032, Example 306] , what is its reported Ki?
< 100 nM
